Provide the recorded viability, T/C for the entries that follow.
Test system: 945468-187-T-J2-PDC spheroids viability;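 also: spheroids exposed to compounds for seven days before reading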
Assay: Anticancer human tumor 945468-187-T-J2-PDC patient-derived rectal carcinoma cell line growth inhibition [PI3K]
Conditions: second compound 1 µM; first compound 0.316 µM; stronger effect = lower value; spheroids with HUVEC and MSC
Description: Combinatorial screen of targeted agents with the PI3K inhibitors inavolisib, alpelisib, duvelisib, and copanlisib in multi-cell type tumor spheroids A high-throughput screen of multi-cell type tumor spheroids was designed to identify active combinations of targeted small molecules and PI3K pathway inhibitors. […] Compounds. […] If the clinical Cmax for an agent had not been determined, the highest concentration tested was 10 microM. […]
Give bare numbers, in %.

Guide cases for viability, T/C, answers given:
Cn1nccc1Nc1nccc(-c2ccn(C(CO)c3ccc(Cl)c(F)c3)c(=O)c2)n1 (stereo unspecified) + CC(Nc1ccc2c(c1)OCCn1cc(N3C(=O)OCC3C(F)F)nc1-2)C(N)=O :: 84.3
CC(Cn1ccc(-c2ccc(C#N)c(Cl)c2)n1)NC(=O)c1cc(C(C)O)[nH]n1 (stereo unspecified) + Cc1nc(NC(=O)N2CCCC2C(N)=O)sc1-c1ccnc(C(C)(C)C(F)(F)F)c1 :: 79.4
CC1(C)CCC(CN2CCN(c3ccc(C(=O)NS(=O)(=O)c4ccc(NCC5CCOCC5)c([N+](=O)[O-])c4)c(Oc4cnc5[nH]ccc5c4)c3)CC2)=C(c2ccc(Cl)cc2)C1 + CC(Nc1ncnc2nc[nH]c12)c1cc2cccc(Cl)c2c(=O)n1-c1ccccc1 :: 103
CNC(=O)c1ccc(N2C(=S)N(c3ccc(C#N)c(C(F)(F)F)c3)C(=O)C2(C)C)cc1F + Cc1nc(NC(=O)N2CCCC2C(N)=O)sc1-c1ccnc(C(C)(C)C(F)(F)F)c1 :: 110
CC(C)NCC(C(=O)N1CCN(c2ncnc3c2C(C)CC3O)CC1)c1ccc(Cl)cc1 (stereo unspecified) + Cc1nc(NC(=O)N2CCCC2C(N)=O)sc1-c1ccnc(C(C)(C)C(F)(F)F)c1 :: 109
CC(Cn1ccc(-c2ccc(C#N)c(Cl)c2)n1)NC(=O)c1cc(C(C)O)[nH]n1 (stereo unspecified) + CC(Nc1ccc2c(c1)OCCn1cc(N3C(=O)OCC3C(F)F)nc1-2)C(N)=O :: 68.9
C=CC(=O)N1CCN(c2nc(=O)n(-c3c(C)ccnc3C(C)C)c3nc(-c4c(O)cccc4F)c(F)cc23)C(C)C1 (stereo unspecified) + COc1c(OCCCN2CCOCC2)ccc2c3n(c(=NC(=O)c4cnc(N)nc4)nc12)CCN3 :: 21.7
Cn1ncc(Cl)c1-c1cc(C(=O)NC(CN)Cc2cccc(F)c2)sc1Cl (stereo unspecified) + Cc1nc(NC(=O)N2CCCC2C(N)=O)sc1-c1ccnc(C(C)(C)C(F)(F)F)c1 :: 97.4

// each listed compound needs a value for viability, T/C
1. Cn1nccc1Nc1nccc(-c2ccn(C(CO)c3ccc(Cl)c(F)c3)c(=O)c2)n1 (stereo unspecified) + CC(Nc1ncnc2nc[nH]c12)c1cc2cccc(Cl)c2c(=O)n1-c1ccccc1
2. CC1(C)CCC(Nc2ncc(C(F)(F)F)c(-c3c[nH]c4c(P(C)(C)=O)c(C#N)ccc34)n2)CN1 (stereo unspecified) + COc1c(OCCCN2CCOCC2)ccc2c3n(c(=NC(=O)c4cnc(N)nc4)nc12)CCN3
3. CC(Cn1ccc(-c2ccc(C#N)c(Cl)c2)n1)NC(=O)c1cc(C(C)O)[nH]n1 (stereo unspecified) + COc1c(OCCCN2CCOCC2)ccc2c3n(c(=NC(=O)c4cnc(N)nc4)nc12)CCN3

Completion:
[89.4, 22.8, 22.9]
